Just for reference, ChEMBL document CHEMBL4813920 is where these values come from.

Form field: MIC (one value per entry).
Test system: Pseudomonas aeruginosa
Experiment: Antibacterial activity against Pseudomonas aeruginosa ATCC 13525 by MH media dilution method
Assay type: functional
Observable: MIC (µg/mL)

COc1ccc(-c2cc(C(=O)OCCn3c([N+](=O)[O-])cnc3C)nn2-c2ccc(Cl)cc2)cc1 1.96
COc1ccc(-c2cc(C(=O)OCCn3c([N+](=O)[O-])cnc3C)nn2-c2ccccc2)cc1 0.98
CC1(C)S[C@@H]2[C@H](NC(=O)Cc3ccccc3)C(=O)N2[C@H]1C(=O)O 7.82
O=C(N[C@H](CO)[C@H](O)c1ccc([N+](=O)[O-])cc1)C(Cl)Cl 0.98
